B1: FERM and PDZ domain-containing protein 4, residues 75 to 154; numbered along this chain, Q14CM0 (parent)
chain: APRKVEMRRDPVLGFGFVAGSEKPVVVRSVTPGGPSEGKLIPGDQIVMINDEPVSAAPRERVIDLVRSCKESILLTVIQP

variants of: B1; assay: abundance fitness (aPCA) (normalised: wild type 0, dead -1); higher = more abundant; growth selection in yeast, the domain comes from the species named; conditions: Homo sapiens
Measure name: abundance fitness
Number only, please.

## Task Specify reported abundance fitness for the variant shown: P24N
## Result -0.333

## Task Specify reported abundance fitness for the variant shown: P24L
## Result -0.77

## Task Specify reported abundance fitness for the variant shown: I63Q
## Result -0.001

## Task Specify reported abundance fitness for the variant shown: E71A
## Result -0.095

## Task Specify reported abundance fitness for the variant shown: I63H
## Result -0.003

## Task Specify reported abundance fitness for the variant shown: V30W
## Result -0.756

## Task Specify reported abundance fitness for the variant shown: P80F
## Result -0.387

## Task Specify reported abundance fitness for the variant shown: R3Q
## Result -0.243

## Task Specify reported abundance fitness for the variant shown: K70H
## Result -0.096

## Task Specify reported abundance fitness for the variant shown: V5N
## Result -0.778

## Task Specify reported abundance fitness for the variant shown: L74K
## Result 0.026

## Task Specify reported abundance fitness for the variant shown: I41P
## Result -0.925

## Task Specify reported abundance fitness for the variant shown: E71N
## Result -0.106

## Task Specify reported abundance fitness for the variant shown: R59E
## Result -0.05

## Task Specify reported abundance fitness for the variant shown: A19R
## Result -0.83

## Task Specify reported abundance fitness for the variant shown: L40T
## Result -0.846

## Task Specify reported abundance fitness for the variant shown: A57Y
## Result 0.038

## Task Specify reported abundance fitness for the variant shown: P58N
## Result -0.04

## Task Specify reported abundance fitness for the variant shown: P32V
## Result -0.051

## Task Specify reported abundance fitness for the variant shown: L75M
## Result -0.022

## Task Specify reported abundance fitness for the variant shown: E37I
## Result -0.145

## Task Specify reported abundance fitness for the variant shown: K70N
## Result -0.076
